FYI, the data here is from PubChem BioAssay AID2060887.

This section presents compounds with their documented viability, T/C values.
Test system: 782815-120-R-J1-PDC complex spheroid viability;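 note: spheroids exposed to compounds for 7 days before reading; 100% = DMSO vehicle control viability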
assay.method.text: Anticancer human tumor 782815-120-R-J1-PDC patient-derived colon adenocarcinoma cell line growth inhibition [RAS]
condition.notes: second compound 10 µM; first compound 0.0316 µM; stronger effect = lower value
assay.endpoint: viability, T/C

• CCC(CC)c1cc(NC2CCC(N)C2)n2nccc2n1 (stereo not given) + C#Cc1c(F)ccc2cc(O)cc(-c3ncc4c(N5CC6CCC(C5)N6)nc(OCC56CCCN5CC(F)C6)nc4c3F)c12 = 106%
• C=CC(=O)Nc1cc(Nc2nccc(-c3cn(C)c4ccccc34)n2)c(OC)cc1N(C)CCN(C)C + C#Cc1c(F)ccc2cc(O)cc(-c3ncc4c(N5CC6CCC(C5)N6)nc(OCC56CCCN5CC(F)C6)nc4c3F)c12 = 110%
• CC(C)NCC(C(=O)N1CCN(c2ncnc3c2C(C)CC3O)CC1)c1ccc(Cl)cc1 (stereo not given) + C#Cc1c(F)ccc2cc(O)cc(-c3ncc4c(N5CC6CCC(C5)N6)nc(OCC56CCCN5CC(F)C6)nc4c3F)c12 = 103%
• Cc1nc(N2CCC3(CC2)COC(C)C3N)c(CO)nc1Sc1ccnc(N)c1Cl (stereo not given) + C#Cc1c(F)ccc2cc(O)cc(-c3ncc4c(N5CC6CCC(C5)N6)nc(OCC56CCCN5CC(F)C6)nc4c3F)c12 = 101%
• Nc1ccn(C2OC(CO)C(O)C2(F)F)c(=O)n1 (stereo not given) + C#Cc1c(F)ccc2cc(O)cc(-c3ncc4c(N5CC6CCC(C5)N6)nc(OCC56CCCN5CC(F)C6)nc4c3F)c12 = 61.9%
